targetUnderTest: Prolyl endopeptidase-like (Homo sapiens)
assayText: PREPL enzyme inhibitors, primary screen, biochemical, fluorescence polarization (AID 2751)
conditions: recombinant PREPL, fluorescence polarization activity-based probe; at 5.96 µM
Screen size: about 320,000 compounds; about 2,200 (0.69%) were called active. No stated cut-off is given here; in the data, active means inhibition above about 43%; inactive means the rest. What follows is part of a selection rich in actives, with near analogues and random picks from the rest.
Select the correct class. Options are active, inactive and nothing else.

Please review the following examples before continuing.
[
  {
    "molecule": "CN=C1SC(CC(=O)Nc2ccc(C(=O)O)cc2)C(=O)N1C (stereo unspecified)",
    "targetUnderTest": "Prolyl endopeptidase-like (Homo sapiens)",
    "group": "inactive"
  },
  {
    "molecule": "CN1CCN(c2ccc(NC(=O)COc3ccc(Cl)cc3Cl)cc2)CC1",
    "targetUnderTest": "Prolyl endopeptidase-like (Homo sapiens)",
    "group": "active"
  }
]

Query: # lookup: test call for `Cc1ccc(N2CCN(/N=C/c3cccs3)CC2)cc1`
Response: inactive

Query: Again, but for `CCN(CC(=O)Nc1c(F)cccc1F)C(=O)c1cnc(C)cn1`
Response: inactive

Query: Field entry: `CN(NS(=O)(=O)c1cccs1)c1ncc(C(F)(F)F)cc1Cl`
Response: inactive

Query: Request: NC(=O)COc1ccc(/C=N/NC(=O)C2CCCN2S(=O)(=O)c2ccc(Cl)cc2)cc1 (stereo unspecified)
Response: inactive

Query: Quick one: `O=C(NCc1ccccn1)c1ccc2nc(-c3ccco3)c(-c3ccco3)nc2c1`
Response: active

Query: What do you have for `CCCCN1C(N)=NC[C@@H]1Cc1ccccc1` ?
Response: inactive

Query: Same for `O=C1CSc2ccc(C(=O)NCc3ccccn3)cc2N1`
Response: inactive

Query: Please answer likewise for `CC(C)n1c(CN2CCN(Cc3ccccc3)CC2)nc2ccccc21`
Response: inactive

Query: Now the same for `Cc1ccc(OCC(=O)Nc2ccc(N3CCN(C(=O)c4ccco4)CC3)cc2)c(C)c1`
Response: active

* * *

targetUnderTest: Prolyl endopeptidase-like (Homo sapiens)
assayText: PREPL enzyme inhibitors, primary screen, biochemical, fluorescence polarization (AID 2751)
conditions: recombinant PREPL, fluorescence polarization activity-based probe; at 5.96 µM; active compounds read high
Among all 320,000 compounds or so, about 2,200 (0.69%) were called active. What follows is part of a selection rich in actives, with near analogues and random picks from the rest.
Class YES: inhibition at least 10%. Class NO: inhibition below 10%.

[
  {
    "compound": "O=C(CN1CCOCC1)Nc1c2c(nc3c1CCC3)CCC2",
    "group": "NO"
  },
  {
    "compound": "Cc1cc(Nc2ccccc2)n(C(=O)c2ccc(N)cc2)n1",
    "group": "YES"
  },
  {
    "compound": "O=C(NCc1ccccc1Cl)C1CCC(CNc2c(N3CCCCC3)c(=O)c2=O)CC1 (stereo not given)",
    "group": "NO"
  },
  {
    "compound": "CS(=O)(=O)N(CC(=O)N1CCOCC1)c1cccc(Cl)c1Cl",
    "group": "NO"
  },
  {
    "compound": "CC(C)(C)Nc1nc(-c2ccccn2)nc2ccccc12",
    "group": "YES"
  }
]

Query: Decide: is the reported value of inhibition for `CCn1c(=S)sc2c(=O)n(CC(=O)Nc3ccc(OC)cc3)c(C)nc21` equal to or greater than 10%?
Response: NO
